Tested on: Wistar male rats
TEST_DESCRIPTION: Diuretic activity
Type: in vivo
REPORTED_CONDITIONS: Rattus norvegicus, po; 25 mg/kg orally, urine taken for 6 hours; relative value for control (100); read-out: Excretion of K^+
// reported response vs control in vivo at 25 mg/kg per item
Write the value in % as a bare number.

| MOLECULAR_STRING | READOUT_NAME | OBS_VALUE |
| --- | --- | --- |
| CCCCn1c(=O)n2c(-c3ccncc3)nnc2c2[nH]cnc21 | response vs control in vivo at 25 mg/kg | 180 |
| CCCn1c(=O)n2c(-c3cccc(Cl)c3)nnc2c2c1ncn2C | response vs control in vivo at 25 mg/kg | 134 |
| CCn1nc2c3c(ncn3C)n(Cc3ccccc3)c(=O)n2c1=O | response vs control in vivo at 25 mg/kg | 173 |
| Cn1cnc2c1c1nnc(-c3ccccc3)n1c(=O)n2-c1ccccc1 | response vs control in vivo at 25 mg/kg | 110 |
| CCCn1c(=O)n2c(-c3ccc([N+](=O)[O-])cc3)nnc2c2c1ncn2C | response vs control in vivo at 25 mg/kg | 175 |
| CCCCn1c(=O)n2c(=O)[nH]nc2c2c1ncn2C | response vs control in vivo at 25 mg/kg | 152 |
| CCCn1c(=O)n2c(-c3ccc(N(C)C)cc3)nnc2c2c1ncn2C | response vs control in vivo at 25 mg/kg | 129 |
| CCCn1cnc2c1c1n[nH]c(=O)n1c(=O)n2CCC | response vs control in vivo at 25 mg/kg | 128 |

Prompt: Query: response vs control in vivo at 25 mg/kg; subject: `CCCn1c(=O)n2c(-c3ccccc3)nnc2c2[nH]cnc21`
Completion: 124
